Target: human KRAS (antigen of the affinity data in Table 1; variant not stated) (human) (UniProt P01116)
Test: kinetic affinity measurement (Rmax in RU; method and format not named)
outcome_measure: Kd (nM)
Numbers only; they are read as nM.

Consider the binder 1F4_1E3 (antibody, V domains shown) VH: EVQLVQSGGGVVQPGRSLRLSCAASGFTSRHPGMHWVRQAPGKGLEWVAVISHDGSKKYYADSVKGRFTISRDNSKNTLFVQLSSLRPEDTAVYYCATSLYSSMDLWGQGTTVTVSS VL: QSVVTQPPSVSAAPGQKVTISCSGSNSNIGKNYVSWFQQVPGTAPKLLIFEDNQRPSGIPDRFSASKSGTSASLAISGLQSEDEADYYCAAWDDYRGPHWVFGGGTKLTVL and give its measured Kd.
4.2

Consider the binder 1F4_5F8 (antibody, V domains shown) VH: EVQLVQSGGGVVQPGRSLRLSCAASGFTSRNPGMHWVRQAPGKGLEWVAVISHDGSKKYYADSVKGRFTISRDNSKNTLFVQLSSLRPEDTAVYYCATSLYSSMDLWGQGTTVTVSS VL: QSVVTQPPSVSAAPGQKVTISCSGSNSNIGKNYVSWFQQVPGTAPKLLIFEDNQRPSGIPDRFSASKSGTSASLAISGLQSEDEADYYCAAWDDSTGVHWVFGGGTKLTVL and give its measured Kd.
12.6

Consider the binder 1F4_4E10 (antibody, V domains shown) VH: EVQLVQSGGGVVQPGRSLRLSCAASGFTSRAPGMHWVRQAPGKGLEWVAVISHDGSKKYYADSVKGRFTISRDNSKNTLFVQLSSLRPEDTAVYYCATSLYSSMDLWGQGTTVTVSS VL: QSVVTQPPSVSAAPGQKVTISCSGSNSNIGKNYVSWFQQVPGTAPKLLIFEDNQRPSGIPDRFSASKSGTSASLAISGLQSEDEADYYCAAWDDHNGEHWVFGGGTKLTVL and give its measured Kd.
9.6
